biological target: recombinant glucosyltransferase domain of C. difficile Toxin B/TcdB (Clostridioides difficile, UniProt P18177); construct: 6-His (C); purchased R&D Systems 6246-GT; experiment: biochemical
Sequence (P18177 1-543): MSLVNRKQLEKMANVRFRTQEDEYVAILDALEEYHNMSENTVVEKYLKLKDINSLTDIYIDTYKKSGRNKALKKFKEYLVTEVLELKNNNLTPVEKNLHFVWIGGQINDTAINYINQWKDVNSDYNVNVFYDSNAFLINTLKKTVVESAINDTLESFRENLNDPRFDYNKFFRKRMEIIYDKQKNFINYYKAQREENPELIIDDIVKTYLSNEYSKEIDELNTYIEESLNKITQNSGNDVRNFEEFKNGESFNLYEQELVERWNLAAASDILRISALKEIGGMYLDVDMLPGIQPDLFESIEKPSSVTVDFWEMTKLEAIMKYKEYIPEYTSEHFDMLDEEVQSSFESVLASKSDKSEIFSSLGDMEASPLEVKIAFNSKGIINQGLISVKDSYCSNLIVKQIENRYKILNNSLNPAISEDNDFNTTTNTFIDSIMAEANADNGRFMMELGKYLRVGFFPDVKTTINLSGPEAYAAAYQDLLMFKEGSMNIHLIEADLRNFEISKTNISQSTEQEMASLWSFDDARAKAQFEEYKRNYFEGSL
pIC50: −log10 of the molar value.
measurement_name: pIC50

Answered cases to consult:
1) NC(=O)c1ccc(CN2C(=O)c3ccc(Cl)cc3NC(=O)[C@H]2Cc2ccccn2)cc1 [Example 13d] = 6.00 to 7.00
2) O=C1Nc2cc(Cl)ccc2C(=O)N(C[C@H]2CC[C@H](C(=O)c3ccccn3)CC2)[C@@H]1Cc1ccccn1 [Example 11c] = > 7.00
3) Cc1cccnc1NC(=O)c1ccc(CN2C(=O)c3ccc(Cl)cc3NC(=O)[C@H]2Cc2cccnc2)cc1 = 6.00 to 7.00
4) CS(=O)(=O)c1ccc(NC(=O)c2ccc(CN3C(=O)c4ccc(Cl)cc4NC(=O)[C@H]3Cc3ccccn3)cc2Cl)nc1 = > 7.00
5) COc1cnc(NC(=O)c2ccc(CN3C(=O)c4ccc(Cl)cc4NC(=O)[C@H]3Cc3ccccn3)s2)nc1 = 6.00 to 7.00

Item: Cc1ccc(NC(=O)c2ccc(CN3C(=O)c4ccc(Cl)cc4NC(=O)[C@H]3Cc3cscn3)cc2)nc1 | pIC50: > 7.00

Item: O=C(Nc1ccc(CN2C(=O)c3ccc(Cl)cc3NC(=O)[C@H]2Cc2ccccn2)cc1)c1cnccn1 [Example 27d] | pIC50: 6.00 to 7.00

Item: Cc1ccc(C(=O)c2ccc(CN3C(=O)c4ccc(Cl)cc4NC(=O)[C@H]3Cc3ccccn3)cc2)nc1 [Example 11b] | pIC50: > 7.00

Item: CN(C)CC(=O)Nc1cc(CN2C(=O)c3ccc(Cl)cc3NC(=O)[C@H]2Cc2ccccn2)ccc1C(=O)O [Example 22d] | pIC50: 5.00 to 6.00

Item: O=C(Nc1ccccn1)c1ccc(CN2C(=O)c3cccc(Cl)c3NC(=O)[C@H]2Cc2cccnc2)cc1 [Example 35i] | pIC50: 5.00 to 6.00

Item: COc1cnc(NC(=O)c2ccc(CN3C(=O)c4ccc(Cl)cc4NC(=O)[C@H]3Cc3ccccn3)cc2OC)cn1 | pIC50: > 7.00

Item: O=C(Nc1ccc(CN2C(=O)c3ccc(Cl)cc3NC(=O)[C@H]2Cc2ccccn2)cc1)c1ncc[nH]1 [Example 27h] | pIC50: > 7.00

Item: Cc1ccc(NC(=O)c2ccc(CN3C(=O)c4ccc(Cl)cc4NC(=O)[C@H]3CCN3CCOCC3)cc2)nc1 [Example 10a] | pIC50: 5.00 to 6.00
